- SYSTEM: T1, hPD-1-Fc (human, UniProt Q15116 25-167)
- T1 construct: domain: IgV domain; also called human PD-1-Fc; not shown: human IgG1 Fc
- T1 sequence (Q15116 25-167 limits assumed): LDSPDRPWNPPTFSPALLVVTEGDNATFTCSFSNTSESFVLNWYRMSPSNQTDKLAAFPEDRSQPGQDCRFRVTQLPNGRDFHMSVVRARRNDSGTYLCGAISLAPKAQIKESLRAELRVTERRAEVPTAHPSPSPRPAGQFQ
- EXPERIMENTAL_PROTOCOL: SPR, range over experiments

# BINDER, Kd
data = [
    ("31B1 (antibody, V domains shown, also called 780_38; 33B1 and 31B2 (apparent misprints)) VH: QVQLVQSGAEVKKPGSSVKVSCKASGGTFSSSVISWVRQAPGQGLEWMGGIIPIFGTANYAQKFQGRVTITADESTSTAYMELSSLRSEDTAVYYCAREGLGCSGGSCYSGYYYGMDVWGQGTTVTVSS VL: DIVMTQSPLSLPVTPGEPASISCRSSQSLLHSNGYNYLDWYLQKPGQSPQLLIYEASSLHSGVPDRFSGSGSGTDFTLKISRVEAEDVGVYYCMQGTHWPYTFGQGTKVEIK", "0.01 to 0.02 nM"),
]
